These data points were gathered from patent US9469653B2.

molecular target: UniProt P27338; test: Screening of MAO-B activity inhibition (Amplex Red monoamine oxidase assay kit, benzylamine substrate); type: biochemical; settings: activity assay at 0.001, 0.01, 0.1, 1 and 10 uM
Sequence (P27338 whole entry): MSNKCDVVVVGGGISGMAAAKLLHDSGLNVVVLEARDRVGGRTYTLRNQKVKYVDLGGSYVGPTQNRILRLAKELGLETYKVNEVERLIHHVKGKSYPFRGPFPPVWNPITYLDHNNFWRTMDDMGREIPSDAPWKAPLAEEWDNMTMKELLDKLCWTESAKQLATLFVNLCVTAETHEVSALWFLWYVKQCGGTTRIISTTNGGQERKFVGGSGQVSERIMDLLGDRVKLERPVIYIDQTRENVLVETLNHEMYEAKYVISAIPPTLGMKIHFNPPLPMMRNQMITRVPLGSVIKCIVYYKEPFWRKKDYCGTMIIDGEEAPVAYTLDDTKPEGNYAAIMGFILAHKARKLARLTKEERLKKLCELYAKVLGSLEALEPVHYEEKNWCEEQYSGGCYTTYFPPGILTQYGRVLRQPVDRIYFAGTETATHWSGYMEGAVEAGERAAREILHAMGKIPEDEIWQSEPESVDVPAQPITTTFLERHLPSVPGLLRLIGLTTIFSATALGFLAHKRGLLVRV
pIC50: −log10 of the molar value.
# binarize pIC50: threshold 5 inclusive, high side T, low side F

Example results:
Fc1cccc(-c2nc3ccc(N4CCCCC4)nc3o2)c1 [Example 5-40] | T
CN(Cc1ccccc1)c1ccc2nc(-c3cccc(Cl)c3)oc2n1 [Example 5-67] | F
Brc1ccc(-c2nc3ccc(N4CCCCC4)nc3o2)cc1 [Example 5-47] | T

Exercise: Test whether the molecule CN(Cc1ccccc1)c1ccc2nc(-c3ccc(Cl)cc3)oc2n1 [Example 5-68] records pIC50 of 5 or higher.
Key: T
